Tested on: CP335
Assay Name: qHTS profiling for inhibitors of Plasmodium falciparum proliferation (AID 504749); also: nearly all actives have a fitted effect of over 60% in size
Experimental Parameters: P. falciparum in erythrocytes, SYBR Green DNA, 72 h; series mostly up to 28.7 µM
Records with an inconclusive call do not appear. Active and inactive are the calls of the source. Calls follow the shape of the dose curve; as a rule, active = well fitted inhibition curve with a large enough effect; inconclusive = small, poorly fitted or top-dose-only effect; inactive = flat fitted curve, though single readings scatter.
Classes used: active, inactive

| Compound | Class |
| --- | --- |
| COC(C(=O)C(O)C(C)O)C1Cc2cc3cc(OC4CC(OC5CC(O)C(O)C(C)O5)C(O)C(C)O4)c(C)c(O)c3c(O)c2C(=O)C1OC1CC(OC2CC(OC3CC(C)(O)C(O)C(C)O3)C(O)C(C)O2)C(O)C(C)O1 (stereo not drawn) | active |
| CCCCCCCC/C=C\CCCCCCCC(=O)O | inactive |
| O=C(O)CN(CCN(CC(=O)O)CC(=O)O)CC(=O)O | inactive |

---

Assay Name: Primary qHTS for inhibitors of nuclear receptor binding SET domain protein 2 (NSD2) in an RCH-ACV wild type WT cells (2C) (AID 1645877); also: nearly all actives have a fitted effect of over 70% in size; as to activity change, negative = cell killing: % is scaled to controls: 0 for no effect and ±100 for the full control effect
Experimental Parameters: RCH-ACV (leukaemia line) NSD2 WT (2C) viability, CellTiter-Glo, 72 h; series mostly up to 44.9 µM
Records with an inconclusive call do not appear. Activity calls are given as the source filed them. Calls follow the shape of the dose curve; as a rule, active = well fitted inhibition curve with a large enough effect; inconclusive = small, poorly fitted or top-dose-only effect; inactive = no such curve, though single readings can be large or run the other way. *1 amine or outer side, *2 acyl side, *3 side chain or, on linkers, in order; H or OH if unused. Where a SMILES comes first, the peptide text is derived from it. Bridges are numbered along the chain shown (N, C = ends). X6 = O=C(CCC[*:2])[*:1]
Parameter Measured: activity change, negative = cell killing

| Molecule | Parameter Measured | Observed Measurement |
| --- | --- | --- |
| C[C@@H]1CC[C@]2(C(=O)O[C@@H]3O[C@H](CO)[C@@H](O)[C@H](O)[C@H]3O)CC[C@]3(C)C(=CCC4[C@@]5(C)C[C@@H](O)[C@H](O)C(C)(C)C5CC[C@]43C)C2[C@]1(C)O (stereo partly drawn) | activity change, negative = cell killing | inactive |
| O=c1ccn([C@@H]2O[C@H](CO)[C@@H](O)[C@H]2O)c(=O)[nH]1 | activity change, negative = cell killing | inactive |
| CC1(C)CCCC2(C)C1C(O)C=C(CO)C2(O)C(=O)O (stereo not drawn) | activity change, negative = cell killing | inactive |
| CC(C)C1=CC2=CCC3[C@](C)(CCC[C@@]3(C)C(=O)O)C2CC1=O (stereo partly drawn) | activity change, negative = cell killing | inactive |
| C=C1CC2C3(C)C(OC(C)=O)CC(=O)OC(C)(C)C3C(O)C(OC(C)=O)C2(C)C2C(=O)OC(C)C(=O)C12C (stereo not drawn) | activity change, negative = cell killing | inactive |
| C[C@]1(O)CC[C@@H]2C(C(=O)O)=CO[C@@H](O[C@@H]3O[C@H](COC(=O)c4ccc(O)cc4)[C@@H](O)[C@H](O)[C@H]3O)[C@@H]21 | activity change, negative = cell killing | inactive |
| COC(=O)[C@@H]1C2CC3c4[nH]c5ccccc5c4CCN3CC2CC[C@@H]1O (stereo partly drawn) | activity change, negative = cell killing | inactive |
| C[C@]1(OC(=O)/C=C/c2ccccc2)C[C@H](O)[C@]2(O)C=CO[C@@H](O[C@@H]3O[C@H](CO)[C@@H](O)[C@H](O)[C@H]3O)C12 (stereo partly drawn) | activity change, negative = cell killing | inactive |
| Cc1cc(N2CCCCC2)nc2ccccc12 | activity change, negative = cell killing | inactive |
| O=C(c1ccccn1)c1cnn2c(-c3ccncc3)ccnc12 | activity change, negative = cell killing | inactive |
| COC(=O)C1=CO[C@@H](O[C@@H]2O[C@H](CO)[C@@H](O)[C@H](O)[C@H]2O)[C@@H]2[C@@](C)(O)[C@@H](O)C[C@]12O | activity change, negative = cell killing | inactive |
| C/C=C(\C)C(=O)O[C@@H](C)[C@H]1CC[C@]2(O)C3CCC4C[C@@H](OC5CC(OC)C(OC6CC(OC)C(OC7CC(OC)C(OC8OC(C)C(OC9OC(CO)C(O)C(O)C9O)C(OC)C8O)C(C)O7)C(C)O6)C(C)O5)CC[C@]4(C)C3[C@H](O)[C@@H](O)[C@]12C (stereo partly drawn) | activity change, negative = cell killing | -1.09% [at 9.23 µM] (inactive) |
| O=C(NN1CCCCC1)c1nn(-c2ccc(Cl)cc2Cl)c(-c2ccc(C#Cc3ccc(C(F)(F)F)cc3)s2)c1CNS(=O)(=O)N1CCCC1 | activity change, negative = cell killing | inactive |
| C=C1CCC2C(C)(C)CC(=O)CC2(C)C1CCC(C)CCOC(C)=O (stereo not drawn) | activity change, negative = cell killing | inactive |
| CC(C)CC1(C(=O)OCc2ccc(O[C@@H]3O[C@H](CO)[C@@H](O)[C@H](O)[C@H]3O)cc2)CC(=O)OC(C(=O)O)CC(=O)OCC2OC(O1)C(OC(=O)/C=C/c1ccc(O)cc1)C(O)C2O (stereo partly drawn) | activity change, negative = cell killing | 0.208% [at 9.23 µM] (inactive) |
| Clc1ccc(CN[C@H]2CCN(c3ncc(Br)cn3)C2)c(Cl)c1 | activity change, negative = cell killing | inactive |
| CC(O)(CC(=O)O)CC(=O)O[C@@H]1[C@@H](O)[C@H](OCCc2ccccc2)O[C@H](CO)[C@H]1O (stereo partly drawn) | activity change, negative = cell killing | inactive |
| CC(=O)NC(CCC(=O)O)C(=O)NCCc1ccc(O)cc1 (stereo not drawn) | activity change, negative = cell killing | inactive |
| C=C1[C@@H]2[C@H]3OC(=O)C(=C)[C@@H]3CC[C@@](C)(O)[C@@H]2C[C@@H]1O[C@@H]1O[C@H](CO)[C@@H](O)[C@H](O)[C@H]1O | activity change, negative = cell killing | inactive |
| CN1C(=O)N[C@@H](Cc2c[nH]c3c(Cl)cccc23)C1=O | activity change, negative = cell killing | inactive |
| COc1ccccc1[C@@H]1C2=C(CC(C)(C)CC2=O)Nc2n[nH]c(C(F)(F)F)c21 | activity change, negative = cell killing | inactive |
| CC(=O)OC1C=C(C(=O)O)C2(CO)CCC(C)C(C)(CCc3ccoc3)C2C1 (stereo not drawn) | activity change, negative = cell killing | inactive |
| CC1CCC2(C)C(CC(O)C(O)C23CO3)C1(C)CCC1=CC(O)OC1=O (stereo not drawn) | activity change, negative = cell killing | inactive |
| CC1(C)OC(=O)C(OCC2CC2)=C1c1ccc(S(C)(=O)=O)cc1 | activity change, negative = cell killing | inactive |
| CCC/C=C/C(=O)O[C@H]1CC(C)(C)CC2[C@]13[C@H](O)O[C@@]21CCC2[C@@]4(C)CC[C@H](O[C@@H]5O[C@H](C(=O)O)[C@@H](O)[C@H](O[C@@H]6O[C@H](CO)[C@H](O)[C@H](O)[C@H]6O[C@@H]6O[C@@H](C)[C@H](O)[C@@H](O)[C@H]6O[C@@H]6OC[C@](O)(CO)[C@H]6O)[C@H]5O[C@@H]5O[C@H](CO)[C@H](O)[C@H](O)[C@H]5O)C(C)(C)C4CC[C@@]2(C)[C@]1(C)C[C@H]3OC(C)=O (stereo partly drawn) | activity change, negative = cell killing | -16.1% [at 9.23 µM] (inactive) |
| C=C(C)C1CC2(CO)C(=CC1=O)CCC(O)C2C (stereo not drawn) | activity change, negative = cell killing | inactive |
| COc1cc(COC2OC(CO)C(O)C(O)C2O)cc(OC)c1O (stereo not drawn) | activity change, negative = cell killing | inactive |
| CC[C@H](C)[C@@H]1NC(=O)[C@H](Cc2ccc(OC)cc2)NC(=O)CCCSC[C@@H](C(=O)N2CCC[C@H]2C(=O)N[C@@H](CC(C)C)C(=O)NCC(N)=O)NC(=O)[C@H](CC(N)=O)NC(=O)[C@H](CCC(N)=O)NC1=O (Y(Me)IQNCPLG-NH2; linker N-5 via X6) | activity change, negative = cell killing | inactive |
